Measured zone of inhibition at 20 µg/disc, listed per entry.
system: Staphylococcus aureus (Mb 108, ATCC 6538P); assay: Agar diffusion disc assay, Sta 108; assay type: cell-based; settings: Staphylococcus aureus, ATCC6538P, 18 h; @ 20 g/disc; read-out: Inhibition zone diameter, Sta 108
Give the quantity in mm, number only.

CNC(=O)O[C@@H]1/C=C(C)/C=C/CNC(=O)/C=C/[C@@H](C)[C@@H](C(C)C)OC(=O)C2=CCCN2C(=O)c2coc(n2)CC(=O)C1
19

Test system Staphylococcus aureus (Mb 108, ATCC 6538P); read-out zone of inhibition at 20 µg/disc; what value for CC1=C\[C@@H](OC(=O)Nc2cccc([N+](=O)[O-])c2)CC(=O)Cc2nc(co2)C(=O)N2CCC=C2C(=O)O[C@H](C(C)C)[C@H](C)/C=C/C(=O)NC\C=C\1 ? 0

Query zone of inhibition at 20 µg/disc on Staphylococcus aureus (Mb 108, ATCC 6538P) for CC(=O)OC1=Cc2nc(co2)C(=O)N2CCC=C2C(=O)O[C@H](C(C)C)[C@H](C)/C=C/C(=O)NC/C=C/C(C)=C/[C@@H](OC(C)=O)C1 9

Kindly state the measured zone of inhibition at 20 µg/disc obtained for CCCCC(=O)O[C@@H]1/C=C(C)/C=C/CNC(=O)/C=C/[C@@H](C)[C@@H](C(C)C)OC(=O)C2=CCCN2C(=O)c2coc(n2)CC(=O)C1 with Staphylococcus aureus (Mb 108, ATCC 6538P). 0

Staphylococcus aureus (Mb 108, ATCC 6538P) / zone of inhibition at 20 µg/disc / CC1=C\[C@@H](OC(=O)Nc2ccc([N+](=O)[O-])cc2)CC(=O)Cc2nc(co2)C(=O)N2CCC=C2C(=O)O[C@H](C(C)C)[C@H](C)/C=C/C(=O)NC\C=C\1 : value? 9
